// provenance: ChEMBL document CHEMBL5728673

# Measurement Target: Tryptophan 2,3-dioxygenase (Homo sapiens, UniProt P48775)
# Sequence (P48775 whole entry): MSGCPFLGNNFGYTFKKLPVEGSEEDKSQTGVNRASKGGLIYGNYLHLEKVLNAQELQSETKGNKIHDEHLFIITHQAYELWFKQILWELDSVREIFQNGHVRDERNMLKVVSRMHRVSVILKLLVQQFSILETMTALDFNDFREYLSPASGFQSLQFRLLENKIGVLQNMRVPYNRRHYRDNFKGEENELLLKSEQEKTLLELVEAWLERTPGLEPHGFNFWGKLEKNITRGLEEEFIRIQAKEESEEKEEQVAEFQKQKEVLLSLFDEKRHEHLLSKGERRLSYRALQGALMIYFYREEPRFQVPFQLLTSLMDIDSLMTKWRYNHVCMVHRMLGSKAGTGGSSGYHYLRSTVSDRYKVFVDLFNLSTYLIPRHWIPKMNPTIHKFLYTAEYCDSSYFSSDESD
# Experiment Notes: Biochemical Coupled Assay: Recombinant human IDO or TDO was incubated in 50 mM KPO4 (pH 7.0), 0.5 mM EGTA, 0.5 mM EDTA, 0.05% Triton™ X100, 20 mM ascorbate, 10 μM methylene blue, 500 U/ml catalase, 50 μg/ml KynB (kynurenine formamidase). TDO assays were carried out in the presence of 330 μM L-tryptophan, while IDO assays had the addition of 45 μM L-tryptophan. After incubation for 17 minutes at room temperature the reactions were stopped by the addition of Erhlich's reagent and incubated at room temperature for 5 minutes before the fluorescence was read.
Value Type: IC50 (nM)
Numbers only, in nM.

Result for CC1(C)CN(c2cc(Cl)cc3cncn23)CCC12NC(=O)NC2=O (stereo unspecified) , tested on Tryptophan 2,3-dioxygenase (Homo sapiens, UniProt P48775), IC50: 1590

====

# Measurement Target: Indoleamine 2,3-dioxygenase 1 (Homo sapiens)
# Sequence (P14902 whole entry): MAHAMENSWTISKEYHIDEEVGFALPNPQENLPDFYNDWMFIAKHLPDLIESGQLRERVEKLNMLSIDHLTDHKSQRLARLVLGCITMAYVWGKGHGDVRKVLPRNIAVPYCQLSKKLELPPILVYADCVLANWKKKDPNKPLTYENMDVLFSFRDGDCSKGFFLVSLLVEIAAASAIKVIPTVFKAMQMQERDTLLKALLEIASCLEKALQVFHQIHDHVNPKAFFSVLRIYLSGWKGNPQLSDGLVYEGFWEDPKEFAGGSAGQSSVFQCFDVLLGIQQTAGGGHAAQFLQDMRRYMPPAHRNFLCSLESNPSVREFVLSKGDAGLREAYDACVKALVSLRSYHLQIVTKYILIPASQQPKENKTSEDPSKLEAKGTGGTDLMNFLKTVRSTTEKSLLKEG
# Experiment Notes: Biochemical Coupled Assay: Recombinant human IDO or TDO was incubated in 50 mM KPO4 (pH 7.0), 0.5 mM EGTA, 0.5 mM EDTA, 0.05% Triton™ X100, 20 mM ascorbate, 10 μM methylene blue, 500 U/ml catalase, 50 μg/ml KynB (kynurenine formamidase). TDO assays were carried out in the presence of 330 μM L-tryptophan, while IDO assays had the addition of 45 μM L-tryptophan. After incubation for 17 minutes at room temperature the reactions were stopped by the addition of Erhlich's reagent and incubated at room temperature for 5 minutes before the fluorescence was read.
Value Type: IC50
Please answer using the number first and the unit second.

get_value(item= CC1(C)CN(c2cc(Cl)cc3cncn23)CCC12NC(=O)NC2=O (stereo unspecified) , readout=IC50) returns 148 nM
